experiment: Stability in simulated intestinal fluid (SIF); conditions: relative stability compared with SIF stability of oxytocin (8±1 min); SIF pH 6.8, pancreatin, 37° C.
*1 amine or outer side, *2 acyl side, *3 side chain or, on linkers, in order; H or OH if unused. Where a SMILES comes first, the peptide text is derived from it. Bridges are numbered along the chain shown (N, C = ends). [ ]: non-standard residue; d: D form. αMeY = C[C@](N)(Cc1ccc(O)cc1)C(=O)O; αMeV = CC(C)[C@](C)(N)C(=O)O; Thz = O=C(O)[C@@H]1CSCN1; X1 = O=C(CCC[*:2])[*:1]; Dap = NC[C@H](N)C(=O)O
quantity: SIF stability [fold OT]

// query SIF stability [fold OT] value for entry CC(=O)NC[C@H](NC(=O)[C@@H]1CCCN1C(=O)[C@@H]1CSCCCC(=O)N[C@@H](Cc2ccc(O)cc2)C(=O)N[C@@](C)(C(C)C)C(=O)N[C@@H](CCC(N)=O)C(=O)N[C@@H](CC(N)=O)C(=O)N1)C(=O)NCC(N)=O [Compound 15] (Y[αMeV]QNCP[Dap](Ac)G-NH2; linker N-5 via X1)
>100 fold OT

// query SIF stability [fold OT] value for entry CC[C@H](C)[C@@H]1NC(=O)[C@](C)(Cc2ccc(O)cc2)NC(=O)CCCSC[C@@H](C(=O)N2CSC[C@H]2C(=O)N[C@@H](CCCCNC(C)=O)C(=O)NCC(N)=O)NC(=O)[C@H](CC(N)=O)NC(=O)[C@H](CCC(N)=O)NC1=O [Compound 17] ([αMeY]IQNC[Thz]K(Ac)G-NH2; linker N-5 via X1)
>100 fold OT

// query SIF stability [fold OT] value for entry CC[C@H](C)[C@@H]1NC(=O)[C@H](Cc2ccc(C)cc2)NC(=O)CCCSC[C@@H](C(=O)N2CCC[C@H]2C(=O)N[C@@H](CNC(C)=O)C(=O)NCC(N)=O)NC(=O)[C@H](CC(N)=O)NC(=O)[C@H](CCC(N)=O)NC1=O
10-100 fold OT

// query SIF stability [fold OT] value for entry CC[C@H](C)[C@@H]1NC(=O)[C@H](Cc2ccc(OC)cc2)NC(=O)CCCSC[C@@H](C(=O)N2CCC[C@H]2C(=O)N[C@@H](CNC(C)=O)C(=O)NCC(N)=O)NC(=O)[C@H](CC(N)=O)NC(=O)[C@H](CCC(N)=O)NC1=O [Compound 6] (Y(Me)IQNCP[Dap](Ac)G-NH2; linker N-5 via X1)
>100 fold OT
